Data origin, for the record: patent US20240067734A1

Recorded OD max, one value per entry.
Biological target: T1, human NKG2D expressed on cells (human, UniProt P26718 1-216)
T1 construct: the cell type is named under assay; also called NKG2D on NK92 cells; HEK293T human NKG2D
T1 chain: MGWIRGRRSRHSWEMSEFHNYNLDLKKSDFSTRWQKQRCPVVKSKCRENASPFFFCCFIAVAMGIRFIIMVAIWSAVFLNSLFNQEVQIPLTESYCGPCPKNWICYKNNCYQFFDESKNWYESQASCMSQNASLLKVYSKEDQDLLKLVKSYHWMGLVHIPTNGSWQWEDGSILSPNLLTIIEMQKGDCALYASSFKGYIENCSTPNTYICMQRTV
Test: cell ELISA; HEK293T expressing human NKG2D and DAP10
MEASURED_ENDPOINT: OD max (OD)

1. anti-NKG2D antibody clone 320 (antibody, V domains shown, From transgenic rabbits; also called 320 IgG) VH: EVQLLESGGGLVQPGGSLRLSCATSGFTFSDYAMSWVRQAPGKGLEWVSYNSFSVGSTDYADSVKGRFTISRDNSKNTLYLQMNSLRAEDTAVYYCSKHSGNYYTGPFHYWGQGTLVTVSS VL: DIQLTQSPSFLSASVGDRVTITCRASQGISSYLAWYQQKPGKAPKLLIYAASSLESGVPSRFSGSGSGTDFTLTISSLQPEDFATYYCQQSYSTPITFGQGTRLEIK    1
2. anti-NKG2D antibody clone 395 (antibody, V domains shown, From transgenic rabbits; rabbit VH, human VL) VH: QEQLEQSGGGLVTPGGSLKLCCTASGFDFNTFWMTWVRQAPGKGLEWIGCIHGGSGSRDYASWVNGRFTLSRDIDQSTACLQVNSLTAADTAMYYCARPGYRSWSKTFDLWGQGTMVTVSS VL: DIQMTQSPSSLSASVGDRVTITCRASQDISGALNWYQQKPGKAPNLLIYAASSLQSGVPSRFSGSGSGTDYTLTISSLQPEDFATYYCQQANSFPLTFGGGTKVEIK    0.8
3. anti-NKG2D antibody clone 001 (antibody, V domains shown, From transgenic rabbits) VH: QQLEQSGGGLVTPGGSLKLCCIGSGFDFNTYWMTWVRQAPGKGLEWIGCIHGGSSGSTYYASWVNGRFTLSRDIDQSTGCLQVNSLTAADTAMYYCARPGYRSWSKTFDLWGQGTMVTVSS VL: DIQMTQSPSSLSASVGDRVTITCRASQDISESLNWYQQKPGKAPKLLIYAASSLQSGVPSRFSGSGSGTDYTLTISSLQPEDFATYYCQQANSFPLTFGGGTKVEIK    1
